Record form. Attribute: IC50. Fill in for each entry.
study target: T1, human OT7T175 (metastin receptor) (human, UniProt Q969F8 1-398)
T1 construct: expressed on CHO cells; also called hOT7T175; hOT7T175-expressed CHO cells
T1 sequence (Q969F8 whole entry L364H): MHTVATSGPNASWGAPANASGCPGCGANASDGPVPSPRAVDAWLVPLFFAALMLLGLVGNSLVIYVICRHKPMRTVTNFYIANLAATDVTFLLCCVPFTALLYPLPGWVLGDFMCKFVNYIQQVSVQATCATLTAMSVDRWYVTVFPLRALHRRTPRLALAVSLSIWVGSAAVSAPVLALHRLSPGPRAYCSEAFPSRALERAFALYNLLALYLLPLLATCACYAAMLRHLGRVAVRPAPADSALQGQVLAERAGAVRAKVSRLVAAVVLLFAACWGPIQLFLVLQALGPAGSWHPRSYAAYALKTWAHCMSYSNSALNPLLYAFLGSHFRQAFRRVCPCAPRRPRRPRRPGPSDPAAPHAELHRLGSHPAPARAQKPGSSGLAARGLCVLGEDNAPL
experiment description: competition with Cy-5 metastin (40-54) on hOT7T175-CHO cells, FMAT
Starred links: 1 amine or outer side, 2 acyl side, 3 side chain; linkers in the order of their positions; H or OH if unused. Non-standard residues stand in square brackets, D forms with d. No end group written: not given here. *: point of attachment. Propanoyl(3-indol-3-yl) = O=C(CCc1c[nH]c2ccccc12)*; Tyr(Me) = COc1ccc(C[C@H](N[*:1])C(=O)[*:2])cc1; Arg(Me) = CNC(=N)NCCC[C@H](N)C(=O)O; Bta = N[C@@H](Cc1csc2ccccc12)C(=O)O; Cha = N[C@@H](CC1CCCCC1)C(=O)O; azaGly = NNC(=O)O
Give bare numbers, in nM.

A selection of reference data follows.
1) YNWNSFGLR[Bta]-NH2 (N-terminus assumed; SMILES CC(C)C[C@H](NC(=O)CNC(=O)[C@H](Cc1ccccc1)NC(=O)[C@H](CO)NC(=O)[C@H](CC(N)=O)NC(=O)[C@H](Cc1c[nH]c2ccccc12)NC(=O)[C@H](CC(N)=O)NC(=O)[C@@H](N)Cc1ccc(O)cc1)C(=O)N[C@@H](CCCNC(=N)N)C(=O)N[C@@H](Cc1csc2ccccc12)C(N)=O, also called Compound No. 189) [[Ala(3-Bzt)10]MS10]; 230
2) [dY]NWNSF[azaGly]L[Arg(Me)]F-NH2 (also called Compound No. 232) [[D-Tyr1,AzaGly7,Arg(Me)9]MS10]; 49
3) YNWNSFGLR[Tyr(Me)]-NH2 (also called Compound No. 18) [[Tyr(Me)10]MS10]; 7.7
4) [dY]N[Cha]NSF[azaGly]L[Arg(Me)]F-NH2 (N-terminus assumed; SMILES CNC(=N)NCCC[C@H](NC(=O)[C@H](CC(C)C)NC(=O)NNC(=O)[C@H](Cc1ccccc1)NC(=O)[C@H](CO)NC(=O)[C@H](CC(N)=O)NC(=O)[C@H](CC1CCCCC1)NC(=O)[C@H](CC(N)=O)NC(=O)[C@H](N)Cc1ccc(O)cc1)C(=O)N[C@@H](Cc1ccccc1)C(N)=O, also called Compound No. 190) [[D-Tyr1,Cha3,AzaGly7,Arg(Me)9]MS10]; 12
5) [dY]N[Cha]NS[Cha]GL[Arg(Me)]F-NH2 (also called Compound No. 181) [[D-Tyr1,Cha3,6,Arg(Me)9]MS10]; 19

Hi! Can you tell me IC50 for each of these binders?
1. {Propanoyl(3-indol-3-yl)}-NSFGLRF-NH2 (SMILES CC(C)C[C@H](NC(=O)CNC(=O)[C@H](Cc1ccccc1)NC(=O)[C@H](CO)NC(=O)[C@H](CC(N)=O)NC(=O)CCc1c[nH]c2ccccc12)C(=O)N[C@@H](CCCNC(=N)N)C(=O)N[C@@H](Cc1ccccc1)C(N)=O, also called Compound No. 114) [des(1-3)-3-(3-Indolyl)propionyl-MS10]
2. YNWNSFGLKF-NH2 (also called Compound No. 44) [[Lys9]MS10]
3. [dY]NFNSF[azaGly]L[Arg(Me)]F-NH2 (also called Compound No. 244) [[D-Tyr1,Phe3,AzaGly7,Arg(Me)9]MS10]
4. [dY]NFNSFF[azaGly]L[Arg(Me)]F-NH2 (N-terminus assumed; SMILES CNC(=N)NCCC[C@H](NC(=O)[C@H](CC(C)C)NC(=O)NNC(=O)[C@H](Cc1ccccc1)NC(=O)[C@H](Cc1ccccc1)NC(=O)[C@H](CO)NC(=O)[C@H](CC(N)=O)NC(=O)[C@H](Cc1ccccc1)NC(=O)[C@H](CC(N)=O)NC(=O)[C@H](N)Cc1ccc(O)cc1)C(=O)N[C@@H](Cc1ccccc1)C(N)=O, printed in three-letter code: D-Tyr-Asn-Phe-Asn-Ser-Phe-Phe-AzaGly-Leu-Arg(Me)-Phe-NH2; also called Compound No. 270) [Endo-Phe5a-[D-Tyr1,Phe3,AzaGly7,Arg(Me)9]MS10]
5. [dY]NWNAFGL[Arg(Me)]F-NH2 (N-terminus assumed; SMILES CNC(=N)NCCC[C@H](NC(=O)[C@H](CC(C)C)NC(=O)CNC(=O)[C@H](Cc1ccccc1)NC(=O)[C@H](C)NC(=O)[C@H](CC(N)=O)NC(=O)[C@H](Cc1c[nH]c2ccccc12)NC(=O)[C@H](CC(N)=O)NC(=O)[C@H](N)Cc1ccc(O)cc1)C(=O)N[C@@H](Cc1ccccc1)C(N)=O) [[D-Tyr1,Ala5,Arg(Me)9]MS10]
6. [dY][dW]NSF[azaGly]L[Arg(Me)]F-NH2 (N-terminus assumed; SMILES CNC(=N)NCCC[C@H](NC(=O)[C@H](CC(C)C)NC(=O)NNC(=O)[C@H](Cc1ccccc1)NC(=O)[C@H](CO)NC(=O)[C@H](CC(N)=O)NC(=O)[C@@H](Cc1c[nH]c2ccccc12)NC(=O)[C@H](N)Cc1ccc(O)cc1)C(=O)N[C@@H](Cc1ccccc1)C(N)=O, also called Compound No. 242) [des(1)-[D-Tyr2,D-Trp3,AzaGly7,Arg(Me)9]MS10]

[550, 190, 77, 15, 36, 70]
